Quick reference for kon among some binders
# target-or-system: T1, recombinant human Fc-PD-1 protein (human, UniProt Q15116 25-170)
# T1 construct: may be the same protein as the PD-1 Fc fusion of the Luminex assays; also called recombinant human PD-1 in an Fc fusion construct; not shown: Fc part not described
# T1 sequence (Q15116 25-170): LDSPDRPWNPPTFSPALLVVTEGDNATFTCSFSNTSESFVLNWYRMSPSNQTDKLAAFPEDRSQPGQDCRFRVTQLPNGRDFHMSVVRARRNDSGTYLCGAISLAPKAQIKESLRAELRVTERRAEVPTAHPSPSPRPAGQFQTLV
# test-method-notes: Biacore, Fab, human Fc-PD-1
Enter your answer as a number in M⁻¹ s⁻¹; do not include the unit.

Solved entries:
Lookup: Given the binder A35818 (Fab, V domains shown, humanized Fab clone of 137F2; also called humanized antibody A35818) VH: QMQLVQSGPEVKKPGTSVKVSCKASGFTFTNYWIGWVRQAPGQALEWMGDIYPGGGYTNYNEKFKGRVTITADKSTSTAYMELSSLRSEDTAVYYCARGYDFVLDRWGQGTTVTVSS VL: DVVMTQSPAFLSVTPGEKVTITCKSSQSLFNSETQKNYLAWYQQKPGQAPRLLIYWASTRESGVPSRFSGSGSGTDFTFTISSLEAEDAATYYCKQSYTLRTFGGGTKLEIK , write its reported kon.
Found: 98800

Lookup: In one line, give reported kon of the entry A35799 (Fab, V domains shown, humanized Fab clone of 137F2; also called humanized antibody A35799) VH: QMQLVQSGAEVKKTGSSVKVSCKASGYTFTNYWIGWVRQMPGKGLEWMGDIYPGGGYTNYNEKFKGRVTITADKSTSTAYMELSSLRSEDTAVYYCARGYDFVLDRWGQGTTVTVSS VL: DVVMTQSPAFLSVTPGEKVTITCKSSQSLFNSETQKNYLAWYQQKPGQPPKLLIYWASTRESGVPSRFSGSGSGTDFTLTISSLQPEDFATYYCKQSYTLRTFGGGTKLEIK .
Found: 101000

Lookup: Quote kon reported for A35795 (Fab, V domains shown, humanized Fab clone of 137F2; also called humanized antibody A35795) VH: QVQLVQSGAEVKKPGASVKVSCKASGYTFTNYWIGWVRQAPGQGLEWMGDIYPGGGYTNYNEKFKGRVTITADKSTSTAYMELSSLRSEDTAVYYCARGYDFVLDRWGQGTTVTVSS VL: DVVMTQSPAFLSVTPGEKVTITCKSSQSLFNSETQKNYLAWYQQKPGQAPRLLIYWASTRESGVPSRFSGSGSGTDFTLTISSLQPEDFATYYCKQSYTLRTFGGGTKLEIK please.
Found: 103000

More entries:
Lookup: State, in one line, measured kon of A35797 (Fab, V domains shown, humanized Fab clone of 137F2; also called humanized antibody A35797) VH: EVQLVQSGAEVKKHGESLKISCKGSGYSFTNYWIGWVRQATGQGLEWMGDIYPGGGYTNYNEKFKGRVTITADKSTSTAYMELSSLRSEDTAVYYCARGYDFVLDRWGQGTTVTVSS VL: DIQMTQSPSSLSASVGDRVTITCKSSQSLFNSETQKNYLAWYQQKPGQPPKLLIYWASTRESGVPSRFSGSGSGTDFTLTISSLQPEDFATYYCKQSYTLRTFGGGTKLEIK
Found: 100000

Entry source: patent US20220259315A1
